# Experiment: in vivo
# Condition Summary: mouse, in vivo, po
Assay Endpoint: MTD
Kindly report the value followed by its unit.

For record COc1ccc(-c2c(Nc3ccccn3)[nH]c3c(C4=CCCCC4)c(-c4ccccc4)nn3c2=O)cc1 the listed MTD is 200 mg/kg
